The reported numbers originate from patent US5436229A.

Entries and their Kass Trypsin
- experimental-system: Bovine trypsin (Bos taurus)
- Construct: Bovine trypsin is purchased from Worthington Biochemicals; purchased Worthington Biochemicals, Freehold, N.J
- Sequence (P00760 24-246): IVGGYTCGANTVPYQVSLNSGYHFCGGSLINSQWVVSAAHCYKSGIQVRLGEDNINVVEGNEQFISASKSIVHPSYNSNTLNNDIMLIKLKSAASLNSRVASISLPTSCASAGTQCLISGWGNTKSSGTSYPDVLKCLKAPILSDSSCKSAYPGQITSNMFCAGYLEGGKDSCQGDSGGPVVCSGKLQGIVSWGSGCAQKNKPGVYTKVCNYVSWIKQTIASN
- assay-method-text: Serine protease inhibition (Kass), trypsin
- Type: biochemical
Only the number, expressed in L/mol × 10^6, is required.

Answered examples (4):
# molecule, measurement-units, Kass Trypsin
records = [
    ("Cl.N=C(N)NCCC[C@@H](C=O)NC(=O)[C@@H]1CCCN1C(=O)[C@@H](Cc1ccccc1)NC(=O)Cc1cccnc1", "L/mol × 10^6", 5.2),
    ("CCS(=O)(=O)N[C@H](CC1CCCCC1)C(=O)N1CCC[C@H]1C(=O)N[C@H](C=O)CCCNC(=N)N.Cl", "L/mol × 10^6", 200),
    ("N=C(N)NCCCC(C=O)NC(=O)C1CCCN1C(=O)C1CC2CCCCC2CN1.O=S(=O)(O)O [80 (Step F), D-3-(cis)Piq-Pro-Arg-H.H2 SO4]", "L/mol × 10^6", 183),
    ("CCS(=O)(=O)N[C@@H](Cc1ccccc1)C(=O)N1CCC[C@@]1(C)C(=O)N[C@H](C=O)CCCNC(=N)N.Cl", "L/mol × 10^6", 1.7),
]

Shifting focus to the molecule that follows.
Find the recorded Kass Trypsin belonging to CCS(=O)(=O)NC1(C(=O)N2CCC[C@H]2C(=O)N[C@H](C=O)CCCNC(=N)N)CCCCC1.Cl and report it.
0.42
